// provenance: the supplement of paper PMC10567573

Test: protein stability index of a GFP-peptide fusion (GPS, HEK-293T) (PSI 1-6); higher = more stable;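 also: 24-mer peptide tiles fused after GFP, lentivirally expressed, FACS-sorted into six equal bins by GFP/DsRed ratio, decoded by Illumina sequencing, PSI is the read-weighted mean bin number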
Settings: treatment: DMSO; c terminus: a fixed tail appended
Measured protein stability index determines class: low: < 3; intermediate: ≥ 3 and < 4; high: ≥ 4

{"columns": ["seq", "answer.label"],
 "data": [
  ["QYYDDEKKTWKILTIMPYNSAHHC [KLHL14]", "low"]
]}

Consider the additional sequence presented here.
Looking at NTKLRQAERLFENQLVGPESIAHI [APMAP] , which class would you pick?
intermediate

* * *

Exercise: for every item that follows, state its recorded protein stability index.
Test: protein stability index of a GFP-peptide fusion (GPS, HEK-293T) (PSI 1-6); higher = more stable
Details: treatment: MLN4924 1 uM, 8 h; c terminus: a fixed tail appended

Please review the entries below; each comes with its answer.
{"columns": ["seq", "protein stability index"],
 "data": [
  ["TMLIVHHRTHTGERPYGCDECEKA [ZNF649]", 3.7],
  ["FQNFSLHDPLYGKLFSTYLRPPHT [LPCAT4]", 2.12],
  ["RSIRQYYKKGIIRKPDISQRLVYQ [SPDEF]", 2.97]
]}

Look up protein stability index for the entries below, preserving their order.
1. DRILERIEDSTGLNRPGPAPLSSR [TCF25]
2. LATSPITVGDLGIVRRRSRDVPES [YJU2B]
3. SGTGKKEKEKKNRKGKDKENGSVS [EIF5]
4. GPFDQGSPFAQELLDDGQQASPYH [ELF3]
5. LLQADREHLPVKPDTMEKLRTHID [DENND6A]
6. GFAFITFENPADAKNAAKDMNGKS [RBMY1A1]
7. KAKRNRTCRPPSSSESSSDSDNSG [ANKRD17]
8. AVRCASGRCTVRDFIHRHCQDQNV [SDE2]

1: 4.66; 2: 4.42; 3: 5.31; 4: 4.96; 5: 3.92; 6: 3.68; 7: 5.43; 8: 2.39

Look up protein stability index for the entries below, preserving their order.
1. PLESAFDHEDFTGSSSLGFTSSPS [FCHO1]
2. VAVCPIPAAGLDVTQPCGDCGTIQ [HDAC6]

1: 5.07; 2: 3.81
